Each recorded value in this set is attributed to PubChem BioAssay AID1963985.

Test system: 252836-082-R-J2-PDC tumor spheroids, viability;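 further: spheroids exposed to agents for seven days before readout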
Experiment: Anticancer human tumor 252836-082-R-J2-PDC patient-derived head and neck squamous cell carcinoma cell line growth inhibition [PI3K]
Conditions: second compound 0.0316 µM; first compound 0.316 µM; hits give low values; spheroids with HUVEC and MSC
# binning rule on viability, T/C: LOW = under 50%, MEDIUM = from 50% up to 90%, HIGH = 90% and over

Solved entries:
Compound	Tgt	Class label
CCN1CCN(Cc2ccc(Nc3ncc(F)c(-c4cc(F)c5nc(C)n(C(C)C)c5c4)n3)nc2)CC1 + CC(Nc1ccc2c(c1)OCCn1cc(N3C(=O)OCC3C(F)F)nc1-2)C(N)=O	252836-082-R-J2-PDC tumor spheroids, viability	MEDIUM
C=CC(=O)N1CCN(c2nc(=O)n(-c3c(C)ccnc3C(C)C)c3nc(-c4c(O)cccc4F)c(F)cc23)C(C)C1 (stereo unspecified) + CC(Nc1ccc2c(c1)OCCn1cc(N3C(=O)OCC3C(F)F)nc1-2)C(N)=O	252836-082-R-J2-PDC tumor spheroids, viability	HIGH
CC1(C)CCC(Nc2ncc(C(F)(F)F)c(-c3c[nH]c4c(P(C)(C)=O)c(C#N)ccc34)n2)CN1 (stereo unspecified) + CC(Nc1ncnc2nc[nH]c12)c1cc2cccc(Cl)c2c(=O)n1-c1ccccc1	252836-082-R-J2-PDC tumor spheroids, viability	LOW
CC(C)NCC(C(=O)N1CCN(c2ncnc3c2C(C)CC3O)CC1)c1ccc(Cl)cc1 (stereo unspecified) + COc1c(OCCCN2CCOCC2)ccc2c3n(c(=NC(=O)c4cnc(N)nc4)nc12)CCN3	252836-082-R-J2-PDC tumor spheroids, viability	LOW
C[C@@H](NC(=O)c1ncnc(N)c1Cl)c1ncc(C(=O)Nc2cc(C(F)(F)F)c(Cl)cn2)s1 + COc1c(OCCCN2CCOCC2)ccc2c3n(c(=NC(=O)c4cnc(N)nc4)nc12)CCN3	252836-082-R-J2-PDC tumor spheroids, viability	MEDIUM

Query: // return the class label for CC(C)NCC(C(=O)N1CCN(c2ncnc3c2C(C)CC3O)CC1)c1ccc(Cl)cc1 (stereo unspecified) + Cc1nc(NC(=O)N2CCCC2C(N)=O)sc1-c1ccnc(C(C)(C)C(F)(F)F)c1
Result: MEDIUM

Query: Please classify: C#Cc1c(F)ccc2cc(O)cc(-c3ncc4c(N5CC6CCC(C5)N6)nc(OCC56CCCN5CC(F)C6)nc4c3F)c12 (stereo unspecified) + Cc1nc(NC(=O)N2CCCC2C(N)=O)sc1-c1ccnc(C(C)(C)C(F)(F)F)c1
Result: HIGH

Query: Could you tell me which band CC(Cn1ccc(-c2ccc(C#N)c(Cl)c2)n1)NC(=O)c1cc(C(C)O)[nH]n1 (stereo unspecified) + CC(Nc1ccc2c(c1)OCCn1cc(N3C(=O)OCC3C(F)F)nc1-2)C(N)=O belongs to?
Result: MEDIUM

Query: Classify this compound: CC1(C)CCC(Nc2ncc(C(F)(F)F)c(-c3c[nH]c4c(P(C)(C)=O)c(C#N)ccc34)n2)CN1 (stereo unspecified) + CC(Nc1ccc2c(c1)OCCn1cc(N3C(=O)OCC3C(F)F)nc1-2)C(N)=O
Result: LOW
